# IC50 listing for each entry below
- test target: human LPA1 (Homo sapiens, UniProt Q92633)
- Construct: the full-length cDNA for human LPA1 was obtained by PCR of the reverse transcription reaction
- Sequence (Q92633 whole entry): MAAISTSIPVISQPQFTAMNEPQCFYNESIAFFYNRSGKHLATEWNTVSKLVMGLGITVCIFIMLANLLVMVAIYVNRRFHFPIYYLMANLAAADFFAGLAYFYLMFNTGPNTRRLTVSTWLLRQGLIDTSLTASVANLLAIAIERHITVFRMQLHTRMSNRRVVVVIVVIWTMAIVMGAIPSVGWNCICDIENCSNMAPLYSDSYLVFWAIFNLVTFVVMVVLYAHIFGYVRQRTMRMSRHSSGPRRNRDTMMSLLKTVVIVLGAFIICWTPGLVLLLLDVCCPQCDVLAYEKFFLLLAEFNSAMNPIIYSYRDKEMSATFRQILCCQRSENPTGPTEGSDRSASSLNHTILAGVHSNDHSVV
- assay remarks: LPA1 calcium flux assay (HLPA1 Ca Flux)
- condition context: Human LPA1 expressing CHO cells, stimulated with 10 nM LPA

molecule	IC50
Cc1noc(-c2ccc(CSc3cccc(CC(=O)O)c3)cc2)c1NC(=O)OC(C)c1ccccc1Cl (stereo not drawn) [Compound 1-18]	< 300 nM
Cc1noc(-c2ccc(COc3cccc(C(=O)O)c3)cc2)c1NC(=O)OC(C)c1ccccc1Cl (stereo not drawn) [Compound 1-12]	< 300 nM
Cc1noc(-c2ccc(-c3ccccc3C(=O)O)cc2)c1NC(=O)OC(C)c1ccccc1Cl (stereo not drawn) [Compound 1-52]	1000 to 50000 nM
Cc1noc(-c2ccc(Oc3ccc(CC(=O)O)cc3)cc2)c1NC(=O)O[C@H](C)c1ccccc1F [Compound 1-84]	< 300 nM
Cc1noc(-c2ccc(-c3ccc(C(=O)O)cn3)cc2)c1NC(=O)OC(C)c1ccccc1Cl (stereo not drawn) [Compound 1-54]	< 300 nM
CCOC(=O)Cc1ccc(-c2ccc(-c3onc(C)c3NC(=O)OC(C)c3ccccc3F)cn2)cc1 (stereo not drawn) [Compound 1-47]	300 to 1000 nM
Cc1noc(-c2ccc(-c3ccccc3CC(=O)O)cc2)c1NC(=O)OC(C)c1ccccc1Cl (stereo not drawn) [Compound 1-57]	< 300 nM
Cc1noc(-c2ccc(-c3ccc(CC(=O)O)cc3)cc2)c1NC(=O)OC(C)c1ccccc1Cl (stereo not drawn) [Compound 1-58]	< 300 nM
Cc1noc(-c2ccc(Cn3cnc(C(=O)O)n3)cc2)c1NC(=O)OC(C)c1ccccc1Cl (stereo not drawn) [Compound 1-1]	< 300 nM
Cc1noc(-c2ccc(-c3ccc(C(C)C(=O)O)cc3)cc2)c1NC(=O)OC(C)c1ccccc1F (stereo not drawn) [Compound 1-74]	< 300 nM
Cc1noc(-c2ccc(-c3ccc(CC(=O)O)cc3)cc2)c1NC(=O)O[C@@H](C)c1ccccc1 [Compound 1-143]	< 300 nM
Cc1noc(-c2ccc(COc3ccc(CC(=O)O)cc3)cc2)c1NC(=O)OC(C)c1ccccc1Cl (stereo not drawn) [Compound 1-100]	< 300 nM
Cc1noc(-c2ccc(-c3ccc(CCC(=O)O)cc3)cc2)c1NC(=O)OC(C)c1ccccc1Cl (stereo not drawn) [Compound 1-62]	< 300 nM
Cc1noc(-c2ccc(-c3ccc(C(C)(C)C(=O)O)cc3)cc2)c1NC(=O)OC(C)c1ccccc1F (stereo not drawn) [Compound 1-86]	< 300 nM
COc1ccc(CC(=O)O)cc1-c1cccc(-c2onc(C)c2NC(=O)OC(C)c2ccccc2Cl)c1 (stereo not drawn) [Compound 1-30]	300 to 1000 nM

====

- test target: human LPA1 (Homo sapiens)
- Construct: the full-length cDNA for human LPA1 was obtained by PCR of the reverse transcription reaction
- assay remarks: LPA1 calcium flux assay (HLPA1 Ca Flux)
- condition context: Human LPA1 expressing CHO cells, stimulated with 10 nM LPA
pIC50: −log10 of the molar value.
# pIC50 listing for each entry below

compound	test target	pIC50
Cc1noc(-c2ccc(Cc3cccc(CC(=O)O)c3)cc2)c1NC(=O)O[C@H](C)c1ccccc1F	human LPA1 (Homo sapiens)	> 6.52
Cc1noc(-c2ccc(-c3ccc(Cc4nn[nH]n4)cc3)cc2)c1NC(=O)O[C@H](C)c1ccccc1Cl	human LPA1 (Homo sapiens)	> 6.52
Cc1noc(-c2cccc(-c3ccc(C(=O)O)nc3)c2)c1NC(=O)OC(C)c1ccccc1Cl (stereo not drawn)	human LPA1 (Homo sapiens)	6.00 to 6.52
COc1ccc(C(C)OC(=O)Nc2c(C)noc2-c2ccc(-c3ccc(CC(=O)O)cc3)cc2)c(F)c1 (stereo not drawn)	human LPA1 (Homo sapiens)	6.00 to 6.52
Cc1ccccc1[C@@H](C)OC(=O)Nc1c(C)noc1-c1ccc(-c2ccc(CC(=O)O)cc2)cc1	human LPA1 (Homo sapiens)	> 6.52
Cc1noc(-c2cccc(C3CCC(C(=O)O)CC3)c2)c1NC(=O)OC(C)c1ccccc1Cl (stereo not drawn)	human LPA1 (Homo sapiens)	> 6.52
COC(=O)Cc1cccc(Oc2ccc(-c3onc(C)c3NC(=O)O[C@H](C)c3ccccc3F)cc2)c1	human LPA1 (Homo sapiens)	> 6.52
Cc1noc(-c2ccc(Cc3ccc(CC(=O)O)cc3)cc2)c1NC(=O)OC(C)c1ccccc1Cl (stereo not drawn)	human LPA1 (Homo sapiens)	> 6.52
Cc1noc(-c2cccc(-c3ccccc3CC(=O)O)c2)c1NC(=O)OC(C)c1ccccc1Cl (stereo not drawn)	human LPA1 (Homo sapiens)	4.30 to 6.00
Cc1noc(-c2cccc(-c3ccc(CC(=O)O)cc3)c2)c1NC(=O)OC(C)c1ccccc1Cl (stereo not drawn)	human LPA1 (Homo sapiens)	4.30 to 6.00
COc1ccccc1C(C)OC(=O)Nc1c(C)noc1-c1ccc(-c2ccc(CC(=O)O)cc2)cc1 (stereo not drawn)	human LPA1 (Homo sapiens)	> 6.52
Cc1noc(-c2ccc(-c3ccc(C(C)C(=O)O)cc3)cc2)c1NC(=O)O[C@H](C)c1ccccc1Cl (single isomer, unassigned) [Compound 1-127]	human LPA1 (Homo sapiens)	> 6.52
Cc1noc(-c2cccc(-c3ccccc3C(=O)O)c2)c1NC(=O)OC(C)c1ccccc1Cl (stereo not drawn)	human LPA1 (Homo sapiens)	6.00 to 6.52
Cc1noc(-c2ccc(-c3ccc(C(C)(C)C(=O)O)cc3)cc2)c1NC(=O)OC(C)c1ccccc1Cl (stereo not drawn)	human LPA1 (Homo sapiens)	> 6.52
Cc1noc(-c2ccc(CS(=O)(=O)c3ccccc3CC(=O)O)cc2)c1NC(=O)OC(C)c1ccccc1Cl (stereo not drawn)	human LPA1 (Homo sapiens)	> 6.52

====

- test target: human LPA1 (Homo sapiens)
- Construct: the full-length cDNA for human LPA1 was obtained by PCR of the reverse transcription reaction
- assay remarks: LPA1 calcium flux assay (HLPA1 Ca Flux)
- condition context: Human LPA1 expressing CHO cells, stimulated with 10 nM LPA
pIC50: −log10 of the molar value.
# pIC50 listing for each entry below

molecule	pIC50
Cc1noc(-c2ccc(-c3ccc(CC(=O)O)cc3)cc2)c1NC(=O)OC(C)c1cccc(C(F)(F)F)c1 (stereo not shown)	6.00 to 6.52
Cc1noc(-c2ccc(-c3cc(CC(=O)O)ccc3F)cc2)c1NC(=O)OC(C)c1ccccc1Cl (stereo not shown)	> 6.52
Cc1noc(-c2ccc(-c3ccc(CC(=N)N)cc3)cc2)c1NC(=O)O[C@H](C)c1ccccc1F	4.30 to 6.00
Cc1noc(-c2ccc(-c3ccc(CC(=O)O)cc3)nc2)c1NC(=O)OC(C)c1ccccc1F (stereo not shown)	> 6.52
Cc1noc(-c2cccc(-c3cc(C(=O)O)ccn3)c2)c1NC(=O)OC(C)c1ccccc1Cl (stereo not shown)	6.00 to 6.52
Cc1noc(-c2ccc(CSc3ccc(CC(=O)O)cc3)cc2)c1NC(=O)OC(C)c1ccccc1Cl (stereo not shown)	> 6.52
Cc1noc(-c2ccc(-c3ccccc3CC(=O)O)cc2)c1NC(=O)O[C@H](C)c1ccccc1	4.30 to 6.00

====

# IC50 listing for each entry below
- test target: human LPA1 (Homo sapiens)
- Construct: the full-length cDNA for human LPA1 was obtained by PCR of the reverse transcription reaction
- assay remarks: LPA1 calcium flux assay (HLPA1 Ca Flux)
- condition context: Human LPA1 expressing CHO cells, stimulated with 10 nM LPA
value kind: IC50

molecule	value
Cc1noc(-c2cnc(-c3ccc(CC(=O)O)cc3)s2)c1NC(=O)O[C@H](C)c1ccccc1F	< 300 nM
Cc1noc(-c2ccc(-c3ccc(C(C)C(=O)O)cc3)cc2)c1NC(=O)O[C@H](C)c1ccccc1Cl (single isomer, unassigned) [Compound 1-128]	< 300 nM
Cc1noc(-c2ccc(Oc3cccc(CC(=O)O)c3)cc2)c1NC(=O)O[C@H](C)c1ccccc1F	< 300 nM
Cc1noc(-c2ccc(Cn3cncc3C(=O)O)cc2)c1NC(=O)OC(C)c1ccccc1Cl (stereo not shown)	< 300 nM
Cc1noc(-c2ccc(-c3cncc(C(=O)O)c3)cc2)c1NC(=O)OC(C)c1ccccc1Cl (stereo not shown)	< 300 nM
Cc1noc(-c2ccc(-c3ccc(CCCC(=O)O)cc3)cc2)c1NC(=O)OC(C)c1ccccc1Cl (stereo not shown)	< 300 nM
Cc1noc(-c2ccc(-c3ccc(CC(=O)O)cc3)cn2)c1NC(=O)OC(C)c1ccccc1Cl (stereo not shown)	< 300 nM

====

# IC50 listing for each entry below
- test target: human LPA1 (Homo sapiens, UniProt Q92633)
- Construct: the full-length cDNA for human LPA1 was obtained by PCR of the reverse transcription reaction
- assay remarks: LPA1 calcium flux assay (HLPA1 Ca Flux)
- condition context: Human LPA1 expressing CHO cells, stimulated with 10 nM LPA

compound	IC50
Cc1noc(-c2ccc(-c3ccc(CC(=O)O)cc3)c(F)c2)c1NC(=O)O[C@H](C)c1ccccc1Cl [Compound 1-132]	< 300 nM
Cc1noc(-c2cccc(-c3cc(CC(=O)O)ccc3F)c2)c1NC(=O)OC(C)c1ccccc1Cl (stereo not drawn) [Compound 1-42]	1000 to 50000 nM
Cc1noc(-c2ccc(CS(=O)(=O)c3ccc(CC(=O)O)cc3)cc2)c1NC(=O)OC(C)c1ccccc1Cl (stereo not drawn) [Compound 1-97]	< 300 nM
Cc1noc(-c2ccc(Cc3cccc(CC(=O)O)c3)cc2)c1NC(=O)OC(C)c1ccccc1Cl (stereo not drawn) [Compound 1-21]	< 300 nM
Cc1noc(-c2ccc(-c3ccc(CC(=O)O)cc3)cc2)c1NC(=O)OC(C)c1cccc(Br)c1 (stereo not drawn) [Compound 1-27]	< 300 nM
Cc1noc(-c2cccc(-c3cncc(C(=O)O)c3)c2)c1NC(=O)OC(C)c1ccccc1Cl (stereo not drawn) [Compound 1-37]	1000 to 50000 nM
COC(=O)Cn1nnc(-c2ccc(-c3onc(C)c3NC(=O)O[C@H](C)c3ccccc3F)cc2)n1 [Compound 1-134]	1000 to 50000 nM
Cc1noc(-c2ccc(-c3ccc(CC(=O)O)cc3)cc2)c1NC(=O)OC(C)(C)C [Compound 1-136]	300 to 1000 nM
Cc1noc(-c2cccc(-c3cncc(CC(=O)O)c3)c2)c1NC(=O)OC(C)c1ccccc1Cl (stereo not drawn) [Compound 1-41]	1000 to 50000 nM
CCC(C(=O)O)c1ccc(-c2ccc(-c3onc(C)c3NC(=O)O[C@H](C)c3ccccc3)cn2)cc1 (stereo partly drawn) [Compound 1-142]	< 300 nM
Cc1noc(-c2ccc(-c3ccc(CC(=O)O)cc3)cc2)c1NC(=O)OC(C)c1ccccc1C(F)(F)F (stereo not drawn) [Compound 1-23]	< 300 nM
CCC(C(=O)O)c1ccc(-c2ccc(-c3onc(C)c3NC(=O)O[C@H](C)c3ccccc3Cl)cc2)cc1 (stereo partly drawn) [Compound 1-130]	< 300 nM
Cc1noc(-c2ccc(-c3ccc(CC(=O)O)cc3)cc2)c1NC(=O)O[C@@H](C)c1ccccc1Cl [Compound 1-112]	300 to 1000 nM
Cc1noc(-c2ccc(-c3ccc(C(O)C(=O)O)cc3)cc2)c1NC(=O)O[C@H](C)c1ccccc1F (stereo partly drawn) [Compound 1-139]	< 300 nM
Cc1noc(-c2ccc(-c3ccc(C(=O)O)nc3)cc2)c1NC(=O)OC(C)c1ccccc1Cl (stereo not drawn) [Compound 1-56]	< 300 nM
